- System name: histamine H4 receptor (Homo sapiens)
- Sequence (Q9H3N8 whole entry): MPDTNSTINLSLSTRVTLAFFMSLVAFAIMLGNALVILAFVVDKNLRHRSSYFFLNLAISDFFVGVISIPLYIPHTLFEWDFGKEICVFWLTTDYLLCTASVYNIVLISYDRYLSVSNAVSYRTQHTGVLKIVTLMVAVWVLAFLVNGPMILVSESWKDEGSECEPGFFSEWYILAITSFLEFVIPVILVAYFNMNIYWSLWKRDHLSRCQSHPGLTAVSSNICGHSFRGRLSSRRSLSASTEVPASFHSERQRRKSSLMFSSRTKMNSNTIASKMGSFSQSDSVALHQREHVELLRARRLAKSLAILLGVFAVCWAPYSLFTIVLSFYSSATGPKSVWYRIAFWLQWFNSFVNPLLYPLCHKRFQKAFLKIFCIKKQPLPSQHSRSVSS
Quantity kind: log10 of Ki (log10 of the value in nM)
# log10 transformed; quantity=Ki; unit=nM

Consider the following illustrative entries.
- Smiles input: "CN1C[C@@H]2CN(C(=O)c3cc4cc(Br)ccc4[nH]3)C[C@@H]2C1"
  System name: "histamine H4 receptor (Homo sapiens)"
  Value measured: 1.63
- Smiles input: "CN1C[C@@H]2CN(C(=N)c3nc4c(F)c(F)ccc4[nH]3)C[C@@H]2C1"
  System name: "histamine H4 receptor (Homo sapiens)"
  Value measured: 1.38
- Smiles input: "CN1C[C@@H]2CN(C(=O)c3cc4cc(Cl)ccc4[nH]3)C[C@@H]2C1"
  System name: "histamine H4 receptor (Homo sapiens)"
  Value measured: 1.20
- Smiles input: "Cc1cccc2nc(C(=O)N3C[C@H]4CN(C)C[C@H]4C3)[nH]c12"
  System name: "histamine H4 receptor (Homo sapiens)"
  Value measured: 2.04
- Smiles input: "CN1C[C@@H]2CN(C(=N)c3nc4cc(F)cc(F)c4[nH]3)C[C@@H]2C1"
  System name: "histamine H4 receptor (Homo sapiens)"
  Value measured: 1.67
- Smiles input: "CN1C[C@@H]2CN(C(=N)c3nc4c(F)c(F)c(F)cc4[nH]3)C[C@@H]2C1"
  System name: "histamine H4 receptor (Homo sapiens)"
  Value measured: 1.78
- Smiles input: "Cc1c(Cl)ccc2[nH]c(C(=O)N3C[C@H]4CN(C)C[C@H]4C3)nc12"
  System name: "histamine H4 receptor (Homo sapiens)"
  Value measured: 1.96
- Smiles input: "Cc1c(Cl)ccc2nc(C(=N)N3C[C@H]4CN(C)C[C@H]4C3)[nH]c12"
  System name: "histamine H4 receptor (Homo sapiens)"
  Value measured: 1.08
- Smiles input: "CN1C[C@@H]2CN(C(=N)c3nc4cc(Cl)ccc4[nH]3)C[C@@H]2C1"
  System name: "histamine H4 receptor (Homo sapiens)"
  Value measured: 1.41
- Smiles input: "CN1C[C@@H]2CN(C(=N)c3nc4cc(F)c(F)cc4[nH]3)C[C@@H]2C1"
  System name: "histamine H4 receptor (Homo sapiens)"
  Value measured: 0.85

Okay, next one:
Given item `CN1C[C@@H]2CN(C(=O)c3nc4cc(F)c(F)cc4[nH]3)C[C@@H]2C1` , the value recorded as its log10 of Ki is 2.07
